Parameter: EC50. Scope: all listed entries.
target: ΔF508-CFTR (Homo sapiens, UniProt P13569, DEL508-508); construct: host or cells: CFBE41o-, doxycycline-inducible; assay: CFTR cell surface levels using HRP-tagged ΔF508-CFTR expressing CFBE cells, in the presence of a co-corrector; type: cell-based; conditions: HRP-tagged ΔF508-CFTR CFBE cells, in the presence of 3 μM co-corrector; read-out: EC50
Sequence (P13569 with tags, fused parts or gaps DEL508-508): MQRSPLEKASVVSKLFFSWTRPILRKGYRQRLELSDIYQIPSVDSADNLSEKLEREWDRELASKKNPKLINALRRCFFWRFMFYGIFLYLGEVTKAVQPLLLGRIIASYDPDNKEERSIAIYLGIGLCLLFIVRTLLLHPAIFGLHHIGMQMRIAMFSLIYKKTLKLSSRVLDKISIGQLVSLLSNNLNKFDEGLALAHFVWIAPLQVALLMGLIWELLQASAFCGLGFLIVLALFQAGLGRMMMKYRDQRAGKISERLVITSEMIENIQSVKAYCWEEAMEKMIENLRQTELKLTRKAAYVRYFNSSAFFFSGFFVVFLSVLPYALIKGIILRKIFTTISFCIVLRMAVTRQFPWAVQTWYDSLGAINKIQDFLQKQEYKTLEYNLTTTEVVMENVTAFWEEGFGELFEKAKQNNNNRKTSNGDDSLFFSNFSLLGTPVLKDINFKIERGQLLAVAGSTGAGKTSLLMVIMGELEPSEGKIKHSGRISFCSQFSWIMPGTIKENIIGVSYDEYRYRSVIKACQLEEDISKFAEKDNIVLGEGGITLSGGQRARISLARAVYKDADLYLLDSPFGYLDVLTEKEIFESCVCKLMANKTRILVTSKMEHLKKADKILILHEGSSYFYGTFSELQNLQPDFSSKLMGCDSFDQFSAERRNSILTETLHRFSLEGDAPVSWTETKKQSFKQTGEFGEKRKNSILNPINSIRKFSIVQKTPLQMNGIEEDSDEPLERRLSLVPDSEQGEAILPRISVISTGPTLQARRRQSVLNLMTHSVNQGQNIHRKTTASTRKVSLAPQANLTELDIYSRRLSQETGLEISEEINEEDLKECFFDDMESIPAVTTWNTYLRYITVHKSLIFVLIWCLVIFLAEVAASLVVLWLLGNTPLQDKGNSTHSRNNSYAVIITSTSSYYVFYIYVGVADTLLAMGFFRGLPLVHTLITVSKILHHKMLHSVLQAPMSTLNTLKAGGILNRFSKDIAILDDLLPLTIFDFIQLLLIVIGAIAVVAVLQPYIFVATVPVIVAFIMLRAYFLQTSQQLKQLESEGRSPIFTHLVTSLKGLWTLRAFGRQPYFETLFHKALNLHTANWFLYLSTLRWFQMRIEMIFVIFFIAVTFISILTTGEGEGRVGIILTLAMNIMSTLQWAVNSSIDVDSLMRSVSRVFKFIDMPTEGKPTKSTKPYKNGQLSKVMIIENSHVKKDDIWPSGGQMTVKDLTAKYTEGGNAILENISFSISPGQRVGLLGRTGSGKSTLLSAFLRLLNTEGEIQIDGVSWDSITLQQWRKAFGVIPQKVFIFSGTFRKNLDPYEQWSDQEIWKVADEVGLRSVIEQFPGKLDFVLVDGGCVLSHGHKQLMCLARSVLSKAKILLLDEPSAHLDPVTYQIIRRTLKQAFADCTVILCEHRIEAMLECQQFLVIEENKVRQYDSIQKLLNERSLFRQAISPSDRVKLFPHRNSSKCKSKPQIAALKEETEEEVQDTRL
Give the value, in units of nM, as a plain number.

CN(C1CCOCC1)C1CCN(c2cc(C(=O)NS(=O)(=O)N(C)C)nc3c2c(C2CCC2)nn3-c2ccc(F)cc2)CC1 [Compound 528] = 834
CS(=O)(=O)NC(=O)c1cc(N2CCN(CC(F)(F)F)CC2)c2c(C3CCC3)nn(-c3ccccc3)c2n1 [Compound 329] = 777

With those in mind, consider the next compound.
Look at this compound and give its reported EC50. CCS(=O)(=O)NC(=O)c1cc(-c2ccc(N3CCOCC3)cc2)c2c(C)nn(-c3ccc(F)cc3F)c2n1 [Compound 113]
235

* * *

molecular target: ΔF508-CFTR (Homo sapiens, UniProt P13569, DEL508-508); construct: host or cells: CFBE41o-, doxycycline-inducible; assay: CFTR cell surface levels using HRP-tagged ΔF508-CFTR expressing CFBE cells, intrinsic corrector capacity; format: cell-based; settings: HRP-tagged ΔF508-CFTR expressing CFBE41o- cells; compound alone (intrinsic corrector capacity); 20 hours at 33° C.; read-out: EC50
# log10 of EC50 values compiled below
Lab note - EC50 converted to log10 from values in nM.

Reference set (5 entries):
COCCN(C)c1cccc(-n2nc(C(C)C)c3c(-c4ccc(N5CCOCC5)cc4)cc(C(=O)NS(C)(=O)=O)nc32)c1 = 2.72
CC(C)c1nn(-c2cccc(N3CCC(F)C3)c2)c2nc(C(=O)NS(C)(=O)=O)cc(-c3ccc(N4CCOCC4)cc3)c12 (stereo not drawn) = 2.85
CN(C)S(=O)(=O)NC(=O)c1cc(OCC2CCN(C3CC3)CC2)c2c(C3CCC3)nn(-c3ccc(F)cc3)c2n1 = 2.54
COC1CCN(c2cc(C(=O)NS(C)(=O)=O)nc3c2c(C(C)C)nn3-c2ccnc(N3CCOCC3)c2)CC1 = 2.35
CCOC(=O)N1CCC(NS(=O)(=O)NC(=O)c2cc(N3CCC(COC)CC3)c3c(C4CCC4)nn(-c4ccccc4)c3n2)CC1 = 1.71

Look up log10 of EC50: COCC1CCN(c2cc(C(=O)NS(=O)(=O)N3CCC(N4CCOCC4)CC3)nc3c2c(C2CCC2)nn3-c2ccccc2)CC1
2.19

Record request: log10 of EC50 value, item COCCOCC1(F)CCCN(c2cc(C(=O)NS(C)(=O)=O)nc3c2c(C2CCC2)nn3-c2ccccc2)C1 (stereo not drawn)
2.62

Endpoint output: log10 of EC50 of CCOC(=O)N1CCC(NS(=O)(=O)NC(=O)c2cc(N3CCC(COC)CC3)c3c(C4CCC4)nn(-c4ccc(F)cc4)c3n2)CC1 . Value?
2.46

log10 of EC50 lookup needed for CS(=O)(=O)NC(=O)c1cc(N2CC3(CCOCC3)C2)c2c(C3CCC3)nn(-c3ccccc3)c2n1 , thanks.
2.99

Item CS(=O)(=O)NC(=O)c1cc(N2CC3(CCC3)C2)c2c(C3CCC3)nn(-c3ccccc3)c2n1 has what recorded log10 of EC50?
3.00

What value of measured log10 of EC50 is listed for CC1(c2nn(-c3ccccc3)c3nc(C(=O)NS(C)(=O)=O)cc(-c4ccc(N5CCOCC5)cc4)c23)CCC1 ?
3.07

Given the entry COC1CCN(c2cc(C(=O)NS(C)(=O)=O)nc3c2c(C(C)C)nn3-c2cccc(N3CCOCC3)n2)CC1 , report its measured log10 of EC50.
2.66

Recorded log10 of EC50 for O=C(NS(=O)(=O)N1CC(F)(F)C1)c1cc(N2CCC(N3CCOCC3)CC2)c2c(C3CCC3)nn(-c3ccc(F)cc3)c2n1 , please?
2.12
